# Target Desc: haemoglobin (Hb) (Homo sapiens, UniProt P68871+P69905)
# Sequence (P69905 2-142): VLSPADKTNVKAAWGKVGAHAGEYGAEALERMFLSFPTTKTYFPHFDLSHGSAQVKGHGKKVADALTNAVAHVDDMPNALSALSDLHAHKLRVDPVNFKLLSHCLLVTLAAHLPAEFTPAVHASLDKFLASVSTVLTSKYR
# Sequence (P68871 2-147): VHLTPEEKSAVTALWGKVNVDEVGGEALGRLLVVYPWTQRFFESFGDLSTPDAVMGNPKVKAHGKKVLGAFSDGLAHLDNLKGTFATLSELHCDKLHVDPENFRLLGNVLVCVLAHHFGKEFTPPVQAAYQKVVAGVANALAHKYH
# Measurement Protocol: SPR
Measured Property: Kd (µM)

[1] C/C1=C\CC[C@H](C)C(=O)C[C@@H](C(C)C)C(=O)C1 [curdione]
[2] C/C1=C\Cc2c(C)coc2C/C(C)=C/CC1 [furanodiene]
[3] CC(C)=C1C/C=C(\C)CC/C=C(\C)CC1=O [germacrone]
[4] C=C[C@]1(C)CC[C@@H](C(=C)C)C[C@H]1C(=C)C [β-elemene]
// TODO: order the 4 compounds above by Kd, descending I would appreciate it if you listed the labels in the requested order. 3, 2, 1, 4
